Reference source for all entries: paper PMC9434060

System name: His6 XCGL-1 (Xenopus laevis, UniProt Q91719)
Sequence (Q91719 18-313): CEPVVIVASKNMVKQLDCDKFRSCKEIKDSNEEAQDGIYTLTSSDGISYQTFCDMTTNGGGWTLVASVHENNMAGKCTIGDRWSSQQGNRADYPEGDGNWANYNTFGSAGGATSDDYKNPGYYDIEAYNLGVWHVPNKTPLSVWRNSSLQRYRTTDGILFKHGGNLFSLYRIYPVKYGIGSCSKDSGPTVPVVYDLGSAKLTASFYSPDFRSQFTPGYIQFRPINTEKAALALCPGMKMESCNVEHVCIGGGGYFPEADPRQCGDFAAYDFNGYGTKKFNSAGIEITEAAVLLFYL
Test protocol: Inhibition of His6 XCGL-1 hemagglutination by carbohydrates
Assay type: cell-based
Cond: pig red blood cells, 25 nM XCGL-1
Measurement name: minimum inhibitory concentration (MIC) of hemagglutination (mM)

OC[C@H]1O[C@@H](O[C@H]2[C@H](O)[C@@H](O)[C@H](O)O[C@@H]2CO)[C@H](O)[C@@H](O)[C@H]1O [lactose, β-D-Gal-(1→4)-D-Glc]
15

(I) OC[C@H]1O[C@H](OCC2O[C@@H](O)[C@H](O)[C@@H](O)[C@@H]2O)[C@H](O)[C@@H](O)[C@H]1O (stereo partly drawn) [melibiose, α-D-Gal-(1→6)-D-Glc]
(II) CC(=O)N[C@H]1C(O)O[C@H](CO)[C@H](O)[C@@H]1O[C@H]1O[C@H](CO)[C@H](O)[C@H](O)[C@H]1O (stereo partly drawn) [α-D-Gal-(1→3)-D-GalNAc]
// compare measured minimum inhibitory concentration (MIC) of hemagglutination between I and II ; output the lower one Field: selected label. Fill in the label of the entry you choose. II
